- Method: Cytotoxic dose required to reduce the viability of normal uninfected MT-4 cells by 50%
- Assay type: cell-based, MT4
- Experimental Conditions: human, read-out: CD50 (the source's name)
Measurement Name: CC50 (µM)
Supply the numeric figure in µM, leaving out any unit text.

get_value(item= CC(C)=CCOCn1c(Cc2ccccc2)c(C(C)C)c(=O)[nH]c1=O , readout=CC50) returns 32

###

- Method: Selective index as the ratio of CD50 to that of ED50 against HIV-1 HxB2 strain.
- Type: functional
Structures can show the parent of a compound that is named as a salt.
Recorded SI, one value per entry.

Below are worked cases with known answers.
[
  {
    "Compound": "CCc1c(Cc2cc(C)cc(C)c2)n(COCC=C(C)C)c(=O)[nH]c1=O",
    "SI": "3.03e+06"
  },
  {
    "Compound": "C=C(C)COCn1c(Cc2cc(C)cc(C)c2)c(CC)c(=O)[nH]c1=O",
    "SI": "> 12500"
  },
  {
    "Compound": "CC(C)=CCOCn1c(Cc2ccccc2)c(C(C)C)c(=O)[nH]c1=O",
    "SI": 1120
  },
  {
    "Compound": "CC(C)Nc1cccnc1N1CCN(C(=O)c2cc3cc(NS(C)(=O)=O)ccc3[nH]2)CC1 [DELAVIRDINE MESYLATE]",
    "SI": "> 221"
  }
]

The compound listed as C=CCOCn1c(Cc2ccccc2)c(C(C)C)c(=O)[nH]c1=O shows SI equal to > 33300

The compound identified as Cc1ccnc2c1NC(=O)c1cccnc1N2C1CC1 registered its SI at > 175

The reported value for C=CCOCn1c(Cc2cc(C)cc(C)c2)c(CC)c(=O)[nH]c1=O in terms of SI is > 5e+06
